Recorded values, source paper PMC3535368.

details: 500 μM KCN, 100 μM protein, 20 mM Tris-HCl pH 7.4, 298 K
Readout name: T, time constant of cyanide binding (exponential fit of heme methyl peak intensities)

Prompt: Which T, time constant of cyanide binding (exponential fit of heme methyl peak intensities) value is on record for WTox (A isomer): oxidized wild-type human Ngb (Cys46-Cys55 disulfide bridge), A heme conformer (protein, UniProt Q9NPG2 1-151, looked up, oxidized, heme A isomer) Neuroglobin: MERPEPELIRQSWRAVSRSPLEHGTVLFARLFALEPDLLPLFQYNCRQFSSPEDCLSSPEFLDHIRKVMLVIDAAVTNVEDLSSLEEYLASLGRKHRAVGVKLSSFSTVGESLLYMLEKCLGPAFTPATRAAWSQLYGAVVQAMSRGWDGE ?
Response: 19 min
